- Test system: KM12
- protocol.notes: NCI tumour cell line growth inhibition, 48 h
Calls of active or inactive are those of the source. No stated cut-off is given here; in the data, active = GI50 up to about 1.1 µM and inactive = higher.
Here, each record is paired with measured GI50 data.
property.label: GI50

molecule	reported
COC1=CC(=O)c2c(CCNC(=O)OCc3ccccc3)n[nH]c2C1=O	10 µM (inactive)
CCCCCC(O)(CCCCC)CCCCCCCCC1=C(O)C(=O)c2ccc(=O)[nH]c2C1=O	11 µM (inactive)
C=C(C)[C@@H]1CCC2=C(CC[C@]3(C)[C@@H]([C@@H](CCC=C(C)C)C(=O)O)[C@H](O)C[C@@]23C)[C@@]1(C)CCC(=O)O	47.4 µM (inactive)
CCOP(=O)(OCC)/C(C#N)=C/c1cn(C)cn1	> 100 µM (inactive)
COc1ccc(P2(=S)Oc3ccc(C(c4ccccc4)(c4ccccc4)c4ccccc4)cc3O2)cc1 (stereo not given)	15 µM (inactive)
